Tested on: A549 NSCLC
Experiment: NCI tumour cell line growth inhibition, 48 h
Where a SMILES comes first, the peptide text is derived from it. [ ]: non-standard residue; d: D form. The star is where a group is joined. NMeF = CN[CH](Cc1ccccc1)C(=O)O; NMeV = CN[CH](C(=O)O)C(C)C; Boc = CC(C)(C)OC(=O)*; OBn = c1ccc(CO*)cc1
Assay metric: TGI

Molecule	Test result
Oc1[nH]c2ccccc2c1N=NC(=S)N1CCCCCC1	6.57 µM
COc1ccc(-c2nnc3n(C)c(=O)c4ccccc4n23)cc1O	> 100 µM
N=C(N)n1[nH]c2c(c1=O)CCC2	> 100 µM
CC1(C)Oc2ccc(Cl)cc2C12CC2	48.4 µM
O=C1c2cnccc2Cc2cccc3c2N1c1ccccc1S3	> 100 µM
c1ccc(-c2n(Cc3ccc4ccccc4n3)c3ccccc3[n+]2Cc2ccc3ccccc3n2)cc1	2.06 µM
CC(O)(c1ccccc1)c1nccc2ccccc12 (stereo unspecified)	> 100 µM
COC(=O)c1ccc(C)cc1C1CN=NC12Cc1cc(C)c(C)cc1C2=O (stereo unspecified)	> 100 µM
CC[C@@]1(O)C(=O)OCc2c1cc1n(c2=O)Cc2c-1nc1ccccc1c2/C=N\NC(=O)C(N)CS (stereo partly specified)	> 100 µM
COc1cc2c(cc1OCCCCCCNC(=O)c1cc3ccccc3[nH]1)N=CC1CCCN1C2=O (stereo unspecified)	> 100 µM
CCOC(=O)/C=C(/C(=O)OCC)n1c(=O)c(C)cn(C2CC(N=[N+]=[N-])C(CO)O2)c1=O (stereo unspecified)	> 100 µM
CCCCCCC(CCl)c1sc(-c2csc(CCNC(=O)OC(C)(C)C)n2)nc1C(=O)OC (stereo unspecified)	> 100 µM
CCCCCC(/C=C/[C@@H]1CC(=O)C[C@H]1O[Si](C)(C)C(C)(C)C)OCOCCOC (stereo partly specified)	33.5 µM
N#CSCC1COc2ccccc2O1 (stereo unspecified)	> 10 µM
Cc1ccccc1NC(=S)N=Nc1c(O)[nH]c2ccccc12	> 100 µM
COc1cc(C)c(C(=O)/C=C/c2cc(OC)c(O)c(OC)c2)cc1O	> 100 µM
O=C(CCCn1ccnc1[N+](=O)[O-])NCCn1cnc([N+](=O)[O-])c1	> 100 µM
CC(=O)Nc1ccc(-c2nnc(SCC(=O)Nc3ccccc3[N+](=O)[O-])o2)cc1	> 100 µM
CC1=C(C(=O)Nc2ccccc2C)C(c2ccc(N(C)C)cc2)C(C(=O)Nc2ccccc2C)=C(C)N1	> 100 µM
COc1ccc(C2C(C(=O)O)=C(COC(C)=O)Oc3cc4c(cc32)OCO4)cc1 (stereo unspecified)	> 100 µM
COc1cc2c3c(cc(Cl)nc3c1OC)C(O)(CC(C)=O)C(=O)N2 (stereo unspecified)	> 62.3 µM
O=C1C2Cc3ccccc3CN2C(=O)N1CN1CCN(CN2C(=O)C3Cc4ccccc4CN3C2=O)CC1 (stereo unspecified)	> 100 µM
Cc1nc2ccccc2c(=O)n1NC(=O)Cc1ccccc1	> 100 µM
Cc1sc2nc(-c3ccccn3)c(/C=N/N=C(N)N)n2c1C	45 µM
COC1=NN2C(OC)(c3ccccc3)c3c(-c4ccccc4)sc(-c4ccccc4)c3C2(c2ccccc2)S1 (stereo unspecified)	> 100 µM
Cc1cc(S(=O)(=O)O)ccc1N=Nc1ccc(N=Nc2c(O)ccc3ccccc23)c(C)c1	> 100 µM
CC(C)(C)OC(=O)NC(CCCCNC(=O)OCc1ccccc1)C(=O)NC(CCCCNC(=O)OCc1ccccc1)C(=O)ON1C(=O)CCC1=O (stereo unspecified)	> 100 µM
CCOC(=O)Nc1nc2c(F)c(F)c(F)cc2s1	> 100 µM
O=C1Nc2ccccc2NC1C1OC(c2ccccc2)=CC1=O (stereo unspecified)	> 100 µM
CN(C)CCCNC(=O)c1cc2c3ccccc3[nH]c2c2ncccc12	> 100 µM
COc1cc(Nc2ncc3c(n2)-c2ccc(Cl)cc2C(c2c(F)cccc2OC)=NC3)ccc1C(=O)O	37.8 µM
Cc1cc(-c2ccccc2)c(C)n1Cc1ccc(Cl)cc1	> 100 µM
N#Cc1cc2cc3c4c(c2oc1=O)CCCN4CCC3	> 100 µM
COc1ccc(C(=O)Nc2ncc(Cc3ccc(F)cc3)s2)cc1	> 100 µM
O=c1c2cc(-c3ccccc3)cnc2sn1-c1ccc([N+](=O)[O-])cc1	> 100 µM
Cc1cc(=O)c2c(O)c3c(O)cc(O)c4c5c(O)cc(O)c6c(O)c7c(=O)cc(C)c8c1c2c(c34)c(c65)c78	> 100 µM
NCCCCNCCCN	> 100 µM
N#CC1N(C(=O)c2ccc(F)cc2)c2ccccc2N1C(=O)c1ccc(F)cc1	> 100 µM
CC(C)C(NC(=O)OC(C)(C)C)C(=O)N(C)C(Cc1ccccc1)C(=O)N(C)C(C(=O)N(C)C(C(=O)OCc1ccccc1)C(C)C)C(C)C (stereo unspecified) (Boc-V[NMeF][NMeV][NMeV]-OBn; configuration not given here)	> 100 µM
Clc1ccccc1-c1nc2ccccc2[nH]1	> 100 µM
C1OCN2c3nonc3N3COCN4c5nonc5N1C2C43 (stereo unspecified)	> 100 µM

meta.source: PubChem BioAssay (NCI)
